- measurement-target: MERTK (UniProt Q12866)
- Sequence (Q12866 whole entry, looked up): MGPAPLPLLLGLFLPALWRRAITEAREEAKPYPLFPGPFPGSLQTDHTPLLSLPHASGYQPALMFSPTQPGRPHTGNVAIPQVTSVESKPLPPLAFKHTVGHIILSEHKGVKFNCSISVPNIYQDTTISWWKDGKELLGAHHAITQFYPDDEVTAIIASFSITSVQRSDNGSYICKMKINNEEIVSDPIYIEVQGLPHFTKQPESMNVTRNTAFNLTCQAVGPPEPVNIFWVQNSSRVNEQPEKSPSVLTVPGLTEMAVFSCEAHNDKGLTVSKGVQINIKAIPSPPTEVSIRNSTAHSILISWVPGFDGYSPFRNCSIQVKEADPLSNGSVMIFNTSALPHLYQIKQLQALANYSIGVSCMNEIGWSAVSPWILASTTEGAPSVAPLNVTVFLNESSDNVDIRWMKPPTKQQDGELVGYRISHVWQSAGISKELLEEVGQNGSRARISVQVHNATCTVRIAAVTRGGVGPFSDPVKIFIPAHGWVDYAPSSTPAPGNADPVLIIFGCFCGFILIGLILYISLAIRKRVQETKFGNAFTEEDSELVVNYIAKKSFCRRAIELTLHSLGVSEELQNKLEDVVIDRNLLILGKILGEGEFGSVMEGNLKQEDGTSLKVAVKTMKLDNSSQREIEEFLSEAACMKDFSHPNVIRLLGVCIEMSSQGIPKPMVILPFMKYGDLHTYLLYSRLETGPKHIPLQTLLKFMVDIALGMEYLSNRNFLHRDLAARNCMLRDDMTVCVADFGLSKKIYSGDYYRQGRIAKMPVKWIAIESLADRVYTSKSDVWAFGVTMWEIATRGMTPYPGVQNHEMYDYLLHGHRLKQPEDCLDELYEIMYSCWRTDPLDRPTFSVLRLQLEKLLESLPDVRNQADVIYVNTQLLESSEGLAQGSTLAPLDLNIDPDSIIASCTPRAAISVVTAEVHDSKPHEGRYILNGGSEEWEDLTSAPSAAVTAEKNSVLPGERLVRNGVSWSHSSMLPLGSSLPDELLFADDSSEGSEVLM
- protocol-text: phosphorylation enrichment, bacterial display (enrichment ratio); higher = better substrate or ligand; peptides without Tyr show the background;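 note: 11-residue human phosphosite peptides and single-mutation variants displayed on the E. coli surface, counted by deep sequencing, each peptide's frequency after selection divided by its frequency in the unselected input library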;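 note: frequency after pTyr selection over input frequency; kinase dosed for 20-30% of maximal phosphorylation in three min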
Note: every record was labeled by where its phosphorylation enrichment sits among 0: < 0.4; 1: ≥ 0.4 and < 0.6; 2: ≥ 0.6

Query :: Band assignment needed for VLRQVYVDFEG [KMT2B_Y1707_R1705Q] please.
Result :: 1

Query :: Kindly identify the class of QKNVSYVSRVS [TASOR_Y1043_T1046R] .
Result :: 1

Query :: Band for the recorded phosphorylation enrichment of LASLIYNFILF [AQP6_Y231_V234I] ?
Result :: 2

Query :: Lab note: which band did QGFDTYFGYLL [ARSB_Y165_R160Q] land in?
Result :: 2

Query :: Which of the defined bands does the recorded phosphorylation enrichment of SLNEGYARDFD [FBP1_Y216] sit within?
Result :: 1

Query :: Hey, which category is AVRYIYTIDGS [DCX_Y105_G100A] in, do you know?
Result :: 2
